test: CRF-BP/CRF-R2 complex antagonists, dose response, cell-based, uHTS hits, 384-well (AID 651639); format: functional, Homo sapiens; conditions: read-out: IC50_Mean
Active and inactive are the calls of the source.
Use one of these outcomes when replying: True for active, False for inactive

INSERT INTO measurements (compound, assigned_class) VALUES
  ('O=[N+]([O-])c1ccc(O)c(Nc2ncnc3ccc(Br)cc23)c1', 'False'),
  ('Clc1ccccc1NN(Cc1ccncc1)c1ccccc1Cl', 'False'),
  ('Cc1ccc(NC(=O)CSc2nnc(Cn3cnc4ccccc43)o2)c(C)c1', 'False'),
  ('Cc1nn(Cc2ccccc2)c(Cl)c1C(=O)NC1CCCc2ccccc21 (stereo not given)', 'True');

Ask: Per the records of this test, what outcome belongs to CC(C)OC(=O)c1ccccc1C(=O)c1ccc(N)c([N+](=O)[O-])c1 ?
Result: False

---

biological target: Beta-galactosidase (Escherichia coli, UniProt Q8VNN2); type: functional
Sequence (Q8VNN2 whole entry): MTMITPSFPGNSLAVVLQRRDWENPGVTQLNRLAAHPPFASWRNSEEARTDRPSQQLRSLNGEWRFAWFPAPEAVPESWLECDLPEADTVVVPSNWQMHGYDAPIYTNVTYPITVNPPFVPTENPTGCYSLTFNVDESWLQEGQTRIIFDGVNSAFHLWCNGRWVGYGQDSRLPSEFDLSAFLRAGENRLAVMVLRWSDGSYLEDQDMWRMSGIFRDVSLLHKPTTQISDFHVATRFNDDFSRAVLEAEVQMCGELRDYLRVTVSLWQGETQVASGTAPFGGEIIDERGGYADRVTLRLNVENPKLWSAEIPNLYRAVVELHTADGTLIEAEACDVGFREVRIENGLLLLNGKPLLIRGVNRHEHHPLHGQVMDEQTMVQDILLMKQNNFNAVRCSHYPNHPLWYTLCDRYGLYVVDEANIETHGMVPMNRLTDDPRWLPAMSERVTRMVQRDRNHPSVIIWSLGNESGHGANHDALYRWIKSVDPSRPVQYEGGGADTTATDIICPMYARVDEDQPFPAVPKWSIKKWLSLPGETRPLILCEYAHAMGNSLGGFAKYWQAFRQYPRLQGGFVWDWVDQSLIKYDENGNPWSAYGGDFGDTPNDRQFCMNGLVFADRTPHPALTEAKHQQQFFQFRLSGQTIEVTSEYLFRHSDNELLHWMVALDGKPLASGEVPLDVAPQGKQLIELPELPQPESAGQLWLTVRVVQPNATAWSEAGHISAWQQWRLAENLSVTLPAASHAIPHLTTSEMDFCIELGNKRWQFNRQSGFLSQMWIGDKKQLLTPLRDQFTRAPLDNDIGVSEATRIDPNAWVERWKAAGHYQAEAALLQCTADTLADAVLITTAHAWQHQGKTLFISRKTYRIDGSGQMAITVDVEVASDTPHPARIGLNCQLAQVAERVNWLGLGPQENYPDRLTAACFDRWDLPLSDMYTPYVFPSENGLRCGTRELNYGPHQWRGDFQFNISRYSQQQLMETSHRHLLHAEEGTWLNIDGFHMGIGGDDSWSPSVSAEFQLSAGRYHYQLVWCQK
Activity calls are given as the source filed them.
The entries below come with measured EC50 values attached.

Below, 3 compounds whose answers are already recorded.
INSERT INTO measurements (compound, test_result) VALUES
  ('Oc1c(Cl)cc(Cl)c2cccnc12 [CHLOROXINE]', '> 31.5 µM (inactive)'),
  ('COc1ccc(-c2cc(=O)n(-c3nc4ccccc4[nH]3)[nH]2)cc1', '> 31.5 µM (inactive)'),
  ('O=C(Nc1nnc(-c2cccs2)o1)c1cccc(Oc2ccccc2)c1', '> 31.5 µM (inactive)');

Next compound, EC50 to be filled in.
Ask: Checklist item: EC50 tested on Beta-galactosidase (Escherichia coli, UniProt Q8VNN2), entry Cc1c(/N=C2\C=CC(=O)c3ccccc32)c(=O)n(-c2ccccc2)n1C , value?
Result: > 31.5 µM (inactive)

---

This document collects AC50 values reported for Cytochrome P450 1A2 (Homo sapiens).

Below, 5 compounds whose answers are already recorded.
INSERT INTO assay_data (cpd_smiles, test_result) VALUES
  ('Cc1cc(C2CCCCC2)n(O)c(=O)c1', '15.8 µM (inconclusive)'),
  ('c1ccc(C[C@@H](c2ccccc2)N2CCCCC2)cc1', '15.8 µM (inconclusive)'),
  ('CCCCN(C)C(=O)c1coc(=O)c2ccccc12', '2.51 µM (inconclusive)'),
  ('CNc1c2c(nn1C)CCCC2', '39.8 µM (inconclusive)'),
  ('CCCCSc1nc(C)cc(N=C(S)Nc2ccc(OC)cc2)n1', '4.47 µM (inconclusive)');

Next compound, AC50 to be filled in.
Ask: Tell me the measured AC50 of O=C(c1coc(=O)c2ccccc12)N1CCN(Cc2ccccc2)CC1 , please.
Result: 10 µM (inconclusive)

---

This document collects AC50 values reported for Cytochrome P450 2D6 (Homo sapiens).

INSERT INTO results (cpd_smiles, quantity_name, test_result) VALUES
  ('Cc1c(C=O)c2ccccn2c1C(=O)c1ccncc1', 'AC50', '25.1 µM (inconclusive)'),
  ('COc1cc(N)c(Cl)cc1C(=O)N[C@@H]1CN2CCC1CC2', 'AC50', '39.8 µM (inconclusive)'),
  ('O=C(O)CN1CCN(Cc2ccc(F)cc2Cl)C1=O', 'AC50', '20 µM (inconclusive)'),
  ('CCNc1ncc2nc(-c3cccs3)c(=O)n(CCc3ccccc3)c2n1', 'AC50', '20 µM (inconclusive)'),
  ('CN(C)c1ncc2nc(-c3ccc(F)cc3)c(=O)n(CCC#N)c2n1', 'AC50', '0.501 µM (inconclusive)'),
  ('COc1ccc(COC(=O)N/N=C2/C[C@@H](O)[C@@H](O)[C@@H]3[C@@H]4C(=O)N(c5cccc(Oc6ccccc6)c5)C(=O)[C@H]4CC[C@@H]23)cc1', 'AC50', '3.16 µM (inconclusive)'),
  ('CC(C)(C)C1CCC2(CC1)CCN(CCCN1CCOCC1)CC2', 'AC50', '3.98 µM (inconclusive)'),
  ('FC(F)(F)c1cc(-c2ccco2)nc(NCc2cccs2)n1', 'AC50', '20 µM (inconclusive)'),
  ('O=S(=O)(c1ccccc1)N1CCC2(CC1)CN(c1ccccn1)C2', 'AC50', '20 µM (inconclusive)');

Next compound, AC50 to be filled in.
Ask: Tell me the measured AC50 of Clc1ccccc1NN(Cc1ccncc1)c1ccccc1Cl , please.
Result: 3.16 µM (inconclusive)

---

Target: Zinc finger protein mex-5 (Caenorhabditis elegans, UniProt Q9XUB2)
Sequence (Q9XUB2 whole entry): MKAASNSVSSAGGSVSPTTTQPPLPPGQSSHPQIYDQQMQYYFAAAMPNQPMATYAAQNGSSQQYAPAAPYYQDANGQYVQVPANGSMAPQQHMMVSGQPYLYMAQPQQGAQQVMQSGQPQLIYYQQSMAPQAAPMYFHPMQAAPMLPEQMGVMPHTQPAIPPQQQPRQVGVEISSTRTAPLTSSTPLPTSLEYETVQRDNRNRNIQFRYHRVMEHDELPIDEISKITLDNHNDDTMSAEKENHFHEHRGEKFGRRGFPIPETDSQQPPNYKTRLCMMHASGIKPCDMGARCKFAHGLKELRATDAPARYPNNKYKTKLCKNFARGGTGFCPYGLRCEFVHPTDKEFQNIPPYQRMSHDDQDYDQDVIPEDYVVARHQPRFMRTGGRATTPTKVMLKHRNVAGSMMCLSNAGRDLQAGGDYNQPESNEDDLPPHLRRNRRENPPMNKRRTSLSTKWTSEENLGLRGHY
Test: MEX-5/TCR-2 RNA interaction inhibitors, dose response, biochemical, C. elegans, fluorescence polarization (AID 1960)
Active and inactive are the calls of the source.
The entries below come with measured EC50 values attached.

Below, 3 compounds whose answers are already recorded.
INSERT INTO assay_data (compound, test_result) VALUES
  ('O=S(=O)(c1cccc(-c2csc(-c3cccnc3)n2)c1)N1CCOCC1', '> 300 µM (not active)'),
  ('Nc1c(C(=O)c2ccc(Br)s2)oc2ccccc12', '106 µM (active)'),
  ('CCOC(=O)c1cc(C(=O)OCC)cc(-n2c(C)cc(C(=O)CN3CCOCC3)c2C)c1', '> 300 µM (not active)');

Ask: Tell me the measured EC50 of Cc1cccc2sc(NNC(=O)c3cc(=O)c4ccccc4o3)nc12 , please.
Result: > 300 µM (not active)

Ask: Tell me the measured EC50 of CC1(C)CCCN(C(=O)c2coc(=O)c(Br)c2)C1 , please.
Result: 68.3 µM (active)

Ask: Tell me the measured EC50 of COc1ccccc1N1C(=O)C2C(C(=O)c3ccccc3)=NN(c3ccc(C)cc3)C2C1=O (stereo unspecified) , please.
Result: 14.3 µM (active)

---

target: FAD-linked sulfhydryl oxidase ALR (Homo sapiens); assay: inhibitors of human ALR sulfhydryl oxidase, dose response, biochemical, H2O2 detection, luminescence, cherry-pick (AID 493248)
Sequence (P55789 whole entry): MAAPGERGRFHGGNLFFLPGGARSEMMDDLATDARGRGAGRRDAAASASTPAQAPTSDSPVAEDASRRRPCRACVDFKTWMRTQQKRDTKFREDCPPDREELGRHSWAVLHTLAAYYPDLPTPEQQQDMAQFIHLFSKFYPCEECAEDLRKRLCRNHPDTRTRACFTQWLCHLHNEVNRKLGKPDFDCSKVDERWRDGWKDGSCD
Active and inactive are the calls of the source.
QUANTITY NAME: AC50

Below, 2 compounds whose answers are already recorded.
INSERT INTO measurements (cpd_smiles, quantity_name, test_result) VALUES
  ('Nc1cccc(C(=O)Nc2ccc3[nH]c(-c4cccnc4)nc3c2)c1', 'AC50', '1070 nM (active)'),
  ('C[C@H](N)CN1CCc2ccc(Br)cc21', 'AC50', '840 nM (active)');

Ask: Checklist item: AC50 tested on FAD-linked sulfhydryl oxidase ALR (Homo sapiens), entry CCN(CC)c1ccc(CNCCc2ccccc2F)cc1 , value?
Result: 1360 nM (active)

Ask: Checklist item: AC50 tested on FAD-linked sulfhydryl oxidase ALR (Homo sapiens), entry CC/C(C)=N/Nc1nc(-c2cc3cccc(OC)c3oc2=O)cs1 , value?
Result: 91 nM (active)

Ask: Checklist item: AC50 tested on FAD-linked sulfhydryl oxidase ALR (Homo sapiens), entry Cc1cc([N+](=O)[O-])ccc1N1C(=O)c2ccc(C(=O)Nc3ccccc3C(=O)O)cc2C1=O , value?
Result: 57000 nM (active)

Ask: Checklist item: AC50 tested on FAD-linked sulfhydryl oxidase ALR (Homo sapiens), entry CCn1c(-c2cc(Br)ccc2O)n[nH]c1=S , value?
Result: 4270 nM (active)

---

The entries below come with measured IC50 values attached.
target: Induced myeloid leukemia cell differentiation protein Mcl-1 (Homo sapiens, UniProt Q07820); assay type: functional
Sequence (Q07820 whole entry): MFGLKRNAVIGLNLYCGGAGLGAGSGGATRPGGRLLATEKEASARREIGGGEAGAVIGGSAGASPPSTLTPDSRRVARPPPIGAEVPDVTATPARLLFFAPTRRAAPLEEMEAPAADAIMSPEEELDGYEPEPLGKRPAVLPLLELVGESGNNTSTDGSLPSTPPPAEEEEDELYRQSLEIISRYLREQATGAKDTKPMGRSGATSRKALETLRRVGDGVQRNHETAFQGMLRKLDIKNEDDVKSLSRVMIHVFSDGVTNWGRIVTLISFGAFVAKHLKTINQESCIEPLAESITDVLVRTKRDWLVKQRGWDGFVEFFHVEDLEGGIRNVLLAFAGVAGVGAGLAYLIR
Activity calls are given as the source filed them.

INSERT INTO results (compound, test_result) VALUES
  ('Cc1cc(C)c(S(=O)(=O)/N=C2/C=C(SCC(=O)O)C(=O)c3ccccc32)cc1C', '7.55 µM (active)'),
  ('Cc1cc(SCC(=O)N/N=C/c2ccc(O)c(O)c2O)c(C)cc1Br', '5.65 µM (active)'),
  ('Oc1ccc(-c2csc(Nc3ncccn3)n2)cc1O', '3.52 µM (active)'),
  ('COC(=O)C1=C(C(=O)OC)C(c2cc(Cl)ccc2O)c2sc(O)nc2S1 (stereo not given)', '4.4 µM (active)');

Next compound, IC50 to be filled in.
Ask: Tell me the measured IC50 of Cc1cccn2c(=O)c3cc(C(=O)NCc4ccco4)c(=N)n(CCc4ccccc4)c3nc12 , please.
Result: 3.57 µM (active)
